The following binders are shown together with reported MRC5 IC50 values.
# experimental.target: Recombinant human IL-1β (BioLegend 579404) (human, UniProt P01584 117-269)
# run.description: cell-based or functional assay
Non-standard residues stand in square brackets, D forms with d. No end group written: not given here. dPro(4R-(4-pyridylmethyl)) = O=C(O)[C@H]1C[C@@H](Cc2ccncc2)CN1; Trp(βS-Me,4-F) = C[C@@H](c1c[nH]c2cccc(F)c12)[C@H](N)C(=O)O; Bip(4'-COOH) = N[C@@H](Cc1ccc(-c2ccc(C(=O)O)cc2)cc1)C(=O)O; Ala(1-bicyclo(1.1.1)pentyl) = N[C@@H](CC12CC(C1)C2)C(=O)O; dPro(4R-Bzl(4-F)) = O=C(O)[C@H]1C[C@@H](Cc2ccc(F)cc2)CN1; Ala(morpholin-4-yl) = N[C@@H](CN1CCOCC1)C(=O)O; Ala(pyrimidin-5-yl) = N[C@@H](Cc1cncnc1)C(=O)O; Phe(4-COOH) = N[C@@H](Cc1ccc(C(=O)O)cc1)C(=O)O; Pro(cis-4-F) = O=C(O)[C@@H]1C[C@H](F)CN1; Ala(4-THP) = N[C@@H](CC1CCOCC1)C(=O)O; 4Pal = N[C@@H](Cc1ccncc1)C(=O)O; αMeD = C[C@](N)(CC(=O)O)C(=O)O; d(αMeS) = C[C@@](N)(CO)C(=O)O; Dab = NCC[C@H](N)C(=O)O; Aib = CC(C)(N)C(=O)O; Sar = CNCC(=O)O

binder	MRC5 IC50
cyclo([Bip(4'-COOH)][4Pal][Phe(4-COOH)]G[Pro(cis-4-F)][Trp(βS-Me,4-F)][Aib]SW[Aib][Ala(pyrimidin-5-yl)]Q[Dab][Sar][dPro(4R-(4-pyridylmethyl))]) (ring closure inferred; not fully specified (bridges); printed as Bip4CO2H-4Pal-Phe4COOH-G-Proc4F-SbMeW4F-Aib-S-W-Aib-PyrimAla-Q-Dab-Sar-dProc4CH24Pal, cyclic (macrolactam)) [SEQ ID NO: 205]	0.028 nM
[Bip(4'-COOH)][Ala(1-bicyclo(1.1.1)pentyl)][Phe(4-COOH)]G[Pro(cis-4-F)][Trp(βS-Me,4-F)][Aib]SW[αMeD][Ala(4-THP)]Q[Dab]G[dPro(4R-(4-pyridylmethyl))] (lactam (positions not given here); also: macrolactam ring, closure sites not given here) [SEQ ID NO: 193]	0.011 nM
cyclo([Bip(4'-COOH)][Ala(1-bicyclo(1.1.1)pentyl)][Phe(4-COOH)]G[Pro(cis-4-F)][Trp(βS-Me,4-F)][Aib]SW[d(αMeS)][Ala(morpholin-4-yl)]Q[Dab]G[dPro(4R-Bzl(4-F))]) (ring closure inferred) [SEQ ID NO: 170]	0.015 nM

The measured values listed here are drawn from patent US20260242419A1.
